Cited source: patent US11066401B2

- EXPERIMENT NOTES: Test for stability: related substances under high temperature and illumination (HPLC)
- Assay type: physicochemical
- STATED CONDITIONS: acetonitrile-water (1:1) solution, 60° C., 10 days, area normalization; in % (unit assumed)
The label depends only on Related substances Day 10 under high temperature: criterion met if it is at least 5, criterion not met if it is smaller.

# example entries with known answers
# COMPOUND, CLASS
records = [
    ("Nc1sc(-c2c(F)cccc2F)nc1C(=O)Nc1cncnc1OCC1CCNCC1.O=C(O)CC(O)(CC(=O)O)C(=O)O", "criterion met"),
    ("Nc1sc(-c2c(F)cccc2F)nc1C(=O)Nc1cncnc1OCC1CCNCC1 [EXAMPLE 2]", "criterion not met"),
    ("CC(=O)O.Nc1sc(-c2c(F)cccc2F)nc1C(=O)Nc1cncnc1OCC1CCNCC1", "criterion not met"),
    ("Nc1sc(-c2c(F)cccc2F)nc1C(=O)Nc1cncnc1OCC1CCNCC1.O=S(=O)(O)O", "criterion not met"),
    ("CS(=O)(=O)O.Nc1sc(-c2c(F)cccc2F)nc1C(=O)Nc1cncnc1OCC1CCNCC1", "criterion met"),
    ("Nc1sc(-c2c(F)cccc2F)nc1C(=O)Nc1cncnc1OCC1CCNCC1.O=C(O)/C=C\\C(=O)O", "criterion not met"),
]

Q) Kindly determine if Related substances Day 10 under high temperature recorded for Nc1sc(-c2c(F)cccc2F)nc1C(=O)Nc1cncnc1OCC1CCNCC1.O=C(O)c1ccccc1 is above or exactly 5.
A) criterion met
